assay: Toxicity in CHO cells; assay type: cell-based, Cricetulus griseus; conditions: Chinese hamster (Cricetulus griseus), CHO cells
readout name: IC50

COc1cc(-c2ccc(-n3nc(-c4ccccc4)n[n+]3-c3ccccc3)c(OC)c2)ccc1-n1nc(-c2ccccc2)n[n+]1-c1ccccc1 [TETRAZOLIUM BLUE CHLORIDE]	> 100 µM
O=[N+]([O-])c1ccc(-[n+]2nc(-c3ccc(OCc4ccccc4)cc3)nn2-c2ccccc2)cc1.[Cl-]	4.4 µM
COc1cc(-c2nn(-c3ccccc3)[n+](-c3ccccc3F)n2)ccc1OCc1ccccc1.[Cl-]	2.7 µM
CCCCCCc1nn(-c2ccccc2)[n+](-c2ccccc2)n1.[Br-]	21 µM

Switching to the query record.
Clc1cccc(-[n+]2nc(-c3ccccc3)nn2-c2ccccc2)c1.[Cl-] has a reported IC50 of 6.3 µM

====

assay: Toxicity in CHO cells; type: cell-based, Cricetulus griseus; conditions: Chinese hamster (Cricetulus griseus), CHO cells
Listing of entries alongside the reported IC50.
Write the number in µM without appending the unit.

Reference set, count: 6
[Cl-].c1ccc(-c2nn(-c3ccccc3)[n+](-c3ccccc3)n2)cc1 [TETRAZOLIUM RED]	71
Fc1ccc(-[n+]2nc(-c3ccc(OCc4ccccc4)cc3)nn2-c2ccccc2)cc1.[Cl-]	16
Brc1cccc(-[n+]2nc(-c3ccc(OCc4ccccc4)cc3)nn2-c2ccccc2)c1.[Cl-]	8.1
CC(C)c1nn(-c2ccccc2)[n+](-c2ccccc2)n1.[Br-]	377
[Cl-].c1ccc(COc2ccc(-n3nc(-c4ccccc4)n[n+]3-c3ccccc3)cc2)cc1	37
[Cl-].c1ccc(-c2nn(-c3ccccc3)[n+](-c3cccc4ccccc34)n2)cc1 [TETRAZOLIUM VIOLET]	15

Next compound, IC50 to be filled in.
So, [Cl-].c1ccc(COc2ccc(-c3nn(-c4ccccc4)[n+](-c4ccccc4)n3)cc2)cc1 ? Its IC50 was 4.2
